# System: K86415-001-R-J1-PDC complex spheroids, viability
# Protocol: Anticancer human tumor K86415-001-R-J1-PDC patient-derived lung adenocarcinoma cell line growth inhibition [RAS]
# Experimental conditions: second compound 0.0949 µM; first compound 10 µM; stronger effect = lower value
# From the text: RAS pathway inhibitors in Combinations in Complex Spheroids A high-throughput screen of multi-cell type tumor spheroids was designed to identify active combinations of RAS pathway inhibitors and targeted small molecules. Complex spheroids include a stromal component modeled by human endothelial cells (HUVEC) and fibroblasts modeled by human mesenchymal stem cells (MSCs). […] Compounds. […] If the clinical Cmax for an agent had not been determined, the highest concentration tested was 10 microM. […]
Measured viability, T/C values are reported for all entries that follow.
Parameter measured: viability, T/C (%)

Molecule: CC(=O)OC12COC1CC(O)C1(C)C(=O)C(O)C3=C(C)C(OC(=O)C(O)C(NC(=O)OC(C)(C)C)c4ccccc4)CC(O)(C(OC(=O)c4ccccc4)C21)C3(C)C (centres undefined) + CCn1c(-c2cc(N3CCN(C)CC3)cnc2C(C)OC)c2c3cc(ccc31)-c1csc(n1)CC(NC(=O)C1CC1C)C(=O)N1CCCC(N1)C(=O)OCC(C)(C)C2
Parameter measured: viability, T/C
Result value: 2.4
--
Molecule: CC1(O)CCCC1n1c(=O)c(C(F)F)cc2cnc(NC3CCN(S(C)(=O)=O)CC3)nc21 (centres undefined) + CCn1c(-c2cccnc2C(C)OC)c2c3cc(ccc31)N1CCOC(CC(NC(=O)C(C(C)C)N(C)C(=O)C3(F)CCN(C(=O)C#CC(C)(C)N(C)C)CC3)C(=O)N3CCCC(N3)C(=O)OCC(C)(C)C2)C1
Parameter measured: viability, T/C
Result value: 5.12
--
Molecule: CCC(CC)c1cc(NC2CCC(N)C2)n2nccc2n1 (centres undefined) + CCn1c(-c2cc(N3CCN(C)CC3)cnc2C(C)OC)c2c3cc(ccc31)-c1csc(n1)CC(NC(=O)C1CC1C)C(=O)N1CCCC(N1)C(=O)OCC(C)(C)C2
Parameter measured: viability, T/C
Result value: 3.31
--
Molecule: CC(C)NCC(C(=O)N1CCN(c2ncnc3c2C(C)CC3O)CC1)c1ccc(Cl)cc1 (centres undefined) + CCn1c(-c2cccnc2C(C)OC)c2c3cc(ccc31)N1CCOC(CC(NC(=O)C(C(C)C)N(C)C(=O)C3(F)CCN(C(=O)C#CC(C)(C)N(C)C)CC3)C(=O)N3CCCC(N3)C(=O)OCC(C)(C)C2)C1
Parameter measured: viability, T/C
Result value: 2.94

====

# Tested on: K86415-001-R-J1-PDC complex spheroids, viability
# Protocol: Anticancer human tumor K86415-001-R-J1-PDC cell line growth inhibition [RAS];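 also: spheroids exposed to agents for seven days before readout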
# Experimental conditions: second compound 0.0316 µM; first compound 0.1 µM; stronger effect = lower value
Parameter measured: viability, T/C (%)

Compound: C[C@@H](NC(=O)c1ncnc(N)c1Cl)c1ncc(C(=O)Nc2cc(C(F)(F)F)c(Cl)cn2)s1 + C=CC(=O)N1CCN(c2nc(OCC3CCCN3C)nc3c(F)c(-c4nc(N)cc(C)c4C(F)(F)F)c(Cl)cc23)C(C)C1
Parameter measured: viability, T/C
Result value: 11.7
//
Compound: NC1c2ccccc2OC12CCN(c1cnc3c(N4CCCc5ncccc54)n[nH]c3n1)CC2 (stereo not drawn) + C=CC(=O)N1CCN(c2nc(OCC3CCCN3C)nc3c(F)c(-c4nc(N)cc(C)c4C(F)(F)F)c(Cl)cc23)C(C)C1
Parameter measured: viability, T/C
Result value: 6.76
//
Compound: CC(C)n1nc(-c2ccc3oc(N)nc3c2)c2c(N)ncnc21 + C#Cc1c(F)ccc2cc(O)cc(-c3ncc4c(N5CC6CCC(C5)N6)nc(OCC56CCCN5CC(F)C6)nc4c3F)c12
Parameter measured: viability, T/C
Result value: 30.3
